Entries below carry reported IC50 on SSTR1 (Homo sapiens (Human), UniProt P30872).
Sequence (P30872 whole entry): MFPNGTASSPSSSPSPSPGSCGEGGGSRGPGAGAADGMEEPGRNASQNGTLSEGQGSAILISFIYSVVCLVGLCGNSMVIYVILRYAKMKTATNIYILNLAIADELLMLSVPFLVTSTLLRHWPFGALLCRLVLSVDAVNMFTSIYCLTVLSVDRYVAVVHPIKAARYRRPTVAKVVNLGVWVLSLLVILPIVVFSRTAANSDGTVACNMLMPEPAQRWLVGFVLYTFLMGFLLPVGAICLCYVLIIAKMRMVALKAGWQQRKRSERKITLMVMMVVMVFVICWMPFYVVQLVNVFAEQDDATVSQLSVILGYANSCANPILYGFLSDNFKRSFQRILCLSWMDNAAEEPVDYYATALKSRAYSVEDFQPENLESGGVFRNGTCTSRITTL
ENDPOINT_LABEL: IC50 (µM)

• CC[C@@H]1CN(C)CC[C@H]1NC(=O)C(C)(C)COc1ncc(C)cc1C (racemic) = 3.16
• Cc1ccccc1[C@@H]1CNCC[C@H]1OC(=O)C(C)(C)COc1ncccc1C(F)(F)F (racemic) = 15.8
• CC(C)[C@@H]1CN(C)C[C@H]1NC(=O)C(C)(C)COc1ncccc1C(F)(F)F (racemic) = 3.16
• Cc1cccnc1OCC(C)(C)C(=O)N[C@@H]1CN(C)C[C@H]1C (racemic) = 12.6
• Cc1ncccc1[C@@H]1CNCC[C@H]1N(C)C(=O)C(C)(C)COc1ncccc1C(F)(F)F (racemic) = 39.8

###

Biological target: SSTR1 (Homo sapiens (Human))
Assay: SSTR1 I-125 somatostatin competition binding assay for selectivity versus SSTR4 (membranes from CHO-K1 cells overexpressing SSTR1)
Details: competition with I-125 labeled somatostatin, CHO-K1 SSTR1 membranes
Each record is given TRUE if its reported SSTR1 Binding pIC50 is strictly below 5. Records at or above 5 are given FALSE.

• C[C@@H]1C[C@H](NC(=O)C(C)(C)COc2ncccc2C2CC2)CCN1C [Example 147] = FALSE
• CN1C[C@@H](NC(=O)C(C)(C)COc2ncccc2C2CC2)[C@H](c2cnn(C)c2)C1 (relative stereo) [Example 22] = FALSE
• Cc1c([C@@H]2CN(C)C[C@H]2NC(=O)C(C)(C)COc2ncccc2C(F)(F)F)cnn1C (relative stereo) [Example 28] = FALSE
• C[C@H]1CNCC[C@@H]1NC(=O)C(F)(F)COc1ncccc1C(F)(F)F [Example 208] = TRUE
• C[C@H]1CNCC[C@@H]1NC(=O)C(F)(F)COc1ccccc1Cl [Example 216] = TRUE
• CN1CC[C@@H](NC(=O)C(C)(C)COc2ccccc2Br)C1 [Example 69] = FALSE

###

Molecular target: SSTR4 (Homo sapiens (Human))
Assay: Inhibition of forskolin stimulated cAMP in CHO-K1 cells overexpressing SSTR4
Type: cell-based
molecules and their reported SSTR4 Activity pEC50
ENDPOINT_LABEL: SSTR4 Activity pEC50

- CC(C)[C@@H]1CN(C)CC[C@@H]1NC(=O)C(C)(C)COc1ncccc1C(F)(F)F (relative stereo): 6.1
- CN1CC[C@@H](NC(=O)C(C)(C)COc2ccccc2Br)C1: 8.4
- CCc1ccccc1OCC(C)(C)C(=O)NC1CCN(C)CC1: 8.1
- CN1CCC(NC(=O)C(C)(C)COc2ccc(Cl)cc2)CC1: 5.8
- Cc1cnc(OCC(C)(C)C(=O)N[C@H]2CCN(C)C[C@H]2C)c(C)c1 (relative stereo): 5.8
- Cc1cnc(OCC(C)(C)C(=O)NC2CCN(C)CC2)c(Cl)c1: 7.0
- Cc1cnc(OCC(C)(C)C(=O)N[C@@H]2CCN(C)[C@H](C)C2)c(C)c1: 7.5
- Cc1cccnc1OCC1(C(=O)NC2CCN(C)CC2)CC1: 5.8
- CCC1CC(NC(=O)C(C)(C)COc2ncccc2OC(F)(F)F)CCN1C (stereo not drawn): 6.7

###

Target: SSTR1 (Homo sapiens (Human), UniProt P30872)
Assay: SSTR1 I-125 somatostatin competition binding assay for selectivity versus SSTR4 (membranes from CHO-K1 cells overexpressing SSTR1);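 note: Filter-based radioligand binding, bound label counted by scintillation after 60 min incubation at room temperature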
Settings: competition with I-125 labeled somatostatin, CHO-K1 SSTR1 membranes
ENDPOINT_LABEL: SSTR1 Binding pIC50

* CN1CCC(NC(=O)C(C)(C)COc2ccccc2C(F)(F)F)CC1 [Example 64] | 5.1
* CN1C[C@H](NC(=O)C(C)(C)COc2ncccc2OC(F)(F)F)C2(CC2)C1 [Example 150] | 5.6
* Cc1cccnc1OCC(C)(C)C(=O)N[C@@H]1CN(C)C[C@H]1c1cn(C)nc1C (relative stereo) [Example 23] | 5.8
* CN1CCC(NC(=O)C(C)(C)COc2ncccc2OC(F)(F)F)C2(CC2)C1 (stereo not drawn) [Example 119] | 5.0
* CN1CC[C@H](NC(=O)C(C)(C)COc2ncccc2OC(F)(F)F)[C@@H](F)C1 [Example 124] | 5.1
* CN1CC[C@@H](NC(=O)C(C)(C)COc2ccccc2C2CC2)C1 [Example 71] | 5.3
* CN1CCC(NC(=O)C(C)(C)COc2ccccc2Br)CC1 [Example 67] | 5.1
* C[C@@H]1C[C@H](NC(=O)C(F)(F)COc2ncccc2C2CC2)CCN1 [Example 211] | 4.8
* Cc1ccccc1[C@@H]1CNCC[C@H]1NC(=O)C(C)(C)COc1ncccc1C(F)(F)F (relative stereo) [Example 157] | 7.0

###

Target: SSTR4 (Homo sapiens (Human), UniProt P31391)
Sequence (P31391 whole entry): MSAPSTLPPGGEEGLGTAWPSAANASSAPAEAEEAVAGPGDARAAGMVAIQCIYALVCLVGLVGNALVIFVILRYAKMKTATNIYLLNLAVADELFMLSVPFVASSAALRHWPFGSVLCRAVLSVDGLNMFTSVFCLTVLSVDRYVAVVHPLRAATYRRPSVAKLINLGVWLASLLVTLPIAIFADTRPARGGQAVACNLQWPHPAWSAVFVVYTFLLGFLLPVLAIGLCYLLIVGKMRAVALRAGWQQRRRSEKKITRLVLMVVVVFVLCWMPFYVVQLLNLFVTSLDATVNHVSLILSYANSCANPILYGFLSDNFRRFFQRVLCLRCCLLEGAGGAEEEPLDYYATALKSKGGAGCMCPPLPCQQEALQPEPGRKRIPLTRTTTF
Assay: SSTR4 I-125 somatostatin competition binding assay (membranes from CHO-K1 cells overexpressing SSTR4)
Conditions: competition with I-125 labeled somatostatin
compounds and their reported SSTR4 Binding pIC50
ENDPOINT_LABEL: SSTR4 Binding pIC50

* C[C@@H]1C[C@H](NC(=O)C(F)(F)COc2ncccc2OC(F)(F)F)CCN1C | 6.7
* Cc1ccccc1[C@@H]1CNCC[C@H]1NC(=O)C(C)(C)COc1ncccc1C(F)(F)F (relative stereo) | 8.8
* Cc1cccnc1OCC(C)(C)C(=O)N[C@H]1CCN(C)C[C@@H]1F | 6.6
* Cc1c([C@@H]2CN(C)C[C@H]2NC(=O)C(C)(C)COc2ncccc2OC(F)(F)F)cnn1C (relative stereo) | 7.8
* CC[C@@H]1CN(C)CC[C@@H]1NC(=O)C(C)(C)COc1ncccc1OC(F)(F)F (relative stereo) | 6.2
* C[C@H]1C[C@@H](NC(=O)C(C)(C)COc2ncccc2OC(F)(F)F)CCN1C (relative stereo) [Example 136] | 7.1
* CC(C)(COc1ccccc1Cl)C(=O)N[C@H]1CCNC[C@@H]1F | 8.4
* CN1CC[C@H](NC(=O)C(C)(C)COc2ncccc2OC(F)(F)F)[C@@H](F)C1 | 7.4
* CN1CC(NC(=O)C(C)(C)COc2ncccc2C(F)(F)F)C2(CC2)C1 (stereo not shown) | 7.2
* CN1CC[C@H](NC(=O)C(C)(C)COc2ncccc2OC(F)(F)F)[C@H](c2ccccc2)C1 (relative stereo) | 7.4
* C[C@@H]1CN(CC#N)CC[C@H]1NC(=O)C(C)(C)COc1ncccc1OC(F)(F)F (relative stereo) | 6.0
* Cc1ccccc1[C@@H]1CN(C)CC[C@H]1NC(=O)C(C)(C)COc1ncccc1C(F)(F)F (relative stereo) | 7.7
* C[C@@H]1C[C@H](NC(=O)C(F)(F)COc2ncccc2C2CC2)CCN1C | 7.7
* C[C@H]1CN(C)CC[C@@H]1NC(=O)C(C)(C)COc1ncccc1OC(F)(F)F | 7.7
* CC(C)(COc1ncccc1C(F)(F)F)C(=O)N[C@H]1CCNC[C@@H]1F | 8.1
* C[C@H]1CNCC[C@@H]1NC(=O)C(C)(C)COc1ccccc1F | 7.5

###

Target: SSTR4 (Homo sapiens (Human), UniProt P31391)
Experiment: Inhibition of forskolin stimulated cAMP in CHO-K1 cells overexpressing SSTR4
Assay type: cell-based
Details: read-out: SSTR4 Activity pEC50 (converted)
molecules and their reported EC50
ENDPOINT_LABEL: EC50 (nM)

- C[C@@H]1CN(C)C[C@H]1NC(=O)C(C)(C)COc1ncccc1C1CC1 (racemic) [Example 181]: 15.8
- Cc1cccnc1OCC(C)(C)C(=O)N[C@@H]1CN(C)C[C@H]1c1ccc(Cl)cc1 (relative stereo) [Example 55]: 31.6
- CN1C[C@@H](NC(=O)C(C)(C)COc2ncccc2C2CC2)[C@H](c2ccc(C(F)(F)F)nc2)C1 (racemic) [Example 58]: 20
- Cc1ncccc1[C@@H]1CNCC[C@H]1OC(=O)C(C)(C)COc1ncccc1C(F)(F)F (racemic) [Example 170]: 39.8
- C[C@@H]1CN(C)C[C@H]1NC(=O)C(C)(C)COc1ncccc1C(F)(F)F (racemic) [Example 165]: 31.6
- Cc1cccnc1OCC(C)(C)C(=O)N[C@@H]1CN(C)C[C@H]1c1ccc(C(F)(F)F)nc1 (relative stereo) [Example 57]: 63.1
- Cc1ncccc1[C@@H]1CNCC[C@H]1N(C)C(=O)C(C)(C)COc1ncccc1C(F)(F)F (racemic) [Example 172]: 12.6
- Cc1cnc(OCC(C)(C)C(=O)N[C@@H]2CCN(C)C[C@H]2C)c(C)c1 (single isomer, unassigned) [Example 31]: 25.1
- CC(C)[C@@H]1CN(C)C[C@H]1NC(=O)C(C)(C)COc1ncccc1C(F)(F)F (racemic) [Example 15]: 20
- C[C@H]1C[C@H](NC(=O)C(C)(C)COc2ncccc2C(F)(F)F)CN1C (relative stereo) [Example 133]: 631
- CC[C@@H]1CN(C)CC[C@H]1NC(=O)C(C)(C)COc1ncc(C)cc1C (racemic) [Example 128]: 15.8
- Cc1cccnc1OCC(C)(C)C(=O)N[C@@H]1CN(C)C[C@H]1C (racemic) [Example 182]: 31.6
- Cc1ccccc1[C@@H]1CNCC[C@H]1OC(=O)C(C)(C)COc1ncccc1C(F)(F)F (racemic) [Example 168]: 25.1
- Cc1cccnc1OCC(F)(F)C(=O)N[C@@H]1CCN(C)C[C@H]1C (racemic) [Example 199]: 158
- CN(C(=O)C(C)(C)COc1ncccc1C(F)(F)F)[C@@H]1CCNC[C@H]1c1ccccc1 (racemic) [Example 162]: 126
- Cc1ccc([C@@H]2CN(CC#N)C[C@H]2NC(=O)C(C)(C)COc2ncccc2C(F)(F)F)cn1 (relative stereo) [Example 103]: 631
- CN1C[C@@H](NC(=O)C(C)(C)COc2ncccc2C(F)(F)F)[C@H](c2ccc(C(F)(F)F)nc2)C1 (relative stereo) [Example 59]: 31.6
- Cc1cnc(OCC(C)(C)C(=O)N[C@@H]2CN(C)C[C@H]2c2ccc(Cl)cc2)c(C)c1 (relative stereo) [Example 93]: 200
- C[C@@H]1C[C@H](NC(=O)C(C)(C)COc2ncccc2C(F)(F)F)CN1C (relative stereo) [Example 134]: 2000
- CN1CCC(NC(=O)C(C)(C)COc2ncccc2C(F)(F)F)C12CCC2 (centres unmarked) [Example 151]: 158
- CC[C@H]1[C@H](NC(=O)C(C)(C)COc2ncccc2C(F)(F)F)CCN1C (relative stereo) [Example 149]: 126
- C[C@H]1C[C@H](NC(=O)C(C)(C)COc2ncccc2OC(F)(F)F)CCN1C (relative stereo) [Example 135]: 25.1
- CCO[C@@H]1CN(C)C[C@H]1NC(=O)C(C)(C)COc1ccccc1CC (relative stereo) [Example 95]: 79.4
- CC(C)(COc1ncccc1C(F)(F)F)C(=O)N[C@@H]1CNC[C@H]1F (relative stereo) [Example 130]: 251
- C[C@@H]1CN(C)CC[C@@H]1NC(=O)C(C)(C)COc1ncccc1OC(F)(F)F (racemic) [Example 14]: 79.4
- Cc1ccc([C@@H]2CN(C)C[C@H]2NC(=O)C(C)(C)COc2ncccc2C)cn1 (relative stereo) [Example 60]: 79.4
- CN1CC[C@@H](NC(=O)C(C)(C)COc2ncccc2OC(F)(F)F)[C@H](c2cnn(C(F)F)c2)C1 (relative stereo) [Example 126]: 1.58
- Cc1cnc(OCC(C)(C)C(=O)N[C@@H]2CN(C)C[C@H]2C)c(C)c1 (relative stereo) [Example 183]: 251
- C[C@@H]1CN(C)CC[C@@H]1NC(=O)C(C)(C)COc1ncccc1C1CC1 (racemic) [Example 21]: 25.1

Data origin, for the record: patent US11045457B2
